assay: NCI Yeast Anticancer Drug Screen. Data for the sgs1 mgt1 strain (AID 161);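 further: 0% = growth of cultures given vehicle only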; settings: S. cerevisiae sgs1 mgt1 strain, at 5.0 µM (retest, dose inferred, filed as 0.5), active compounds read high
The panel holds about 79,000 compounds, 15% with a hit somewhere; the sample as a whole holds those more often.
The compounds listed here are annotated with their growth inhibition.
endpoint: growth inhibition (%)

| compound | obs_value |
| --- | --- |
| O=C(CC1C(=O)c2ccccc2C1=C1C(=O)c2ccccc2C1=O)c1ccccc1 (stereo not given) | 9 |
| O=NN(CCCl)C(=O)Oc1ccc(OC(=O)N(CCCl)N=O)cc1 | 93 |
| CCCCCCCCCCCCCCCC[N+](C)(C)C(C)c1ccccc1 (stereo not given) | 99 |
| Cc1cc(C)cc([C@H](C)N=Cc2cc(Br)ccc2O)c1 | -1 |
| O=C(CC(=O)c1cccnc1)c1cccnc1 | 7 |

----------
experiment: NCI Yeast Anticancer Drug Screen. Data for the cln2 rad14 strain (AID 165);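 further: 0% = growth equal to vehicle treated cultures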; details: S. cerevisiae cln2 rad14 strain, at 50.0 µM (retest, dose inferred, filed as 5.0), active compounds read high
Compounds without any hit were thinned out: in the full panel of roughly 79,000, 15% have a hit.
Class (required): determined from growth inhibition; valid ranges are low band: < 20%; middle band: ≥ 20% and < 90%; high band: ≥ 90%

| compound | class_name |
| --- | --- |
| C[n+]1c(/C=C/c2ccccc2Cl)ccc2ccccc21 | middle band |
| NS(=O)(=O)c1ccc(NC(=S)/N=C/c2c(O)c3ccccc3[nH]c2=O)cc1 | low band |
| Cc1cnc(C#N)c(C#N)n1 | low band |
| Cc1cccc2c1C1c3c(C)cccc3C(O)CC1CC2O (stereo unspecified) | low band |
| N#Cc1c(-c2ccc(Cl)cc2)c(C#N)c(=O)n(NS(=O)(=O)c2ccccc2)c1S | middle band |
| CCN(CC)CCCNc1cccc2ccc(OC)nc12 | middle band |
| c1ccc2c(c1)oc1cc3c(cc12)CCCN3 | high band |
| CCCCCCCCCCCCCCCCOC(=O)C[n+]1cccc(C(N)=O)c1 | middle band |
| CCc1nc2ccc(N=NN(C)C)cc2[nH]1 | middle band |
| Oc1ccc(Cc2cc(Cl)cc(Cl)c2O)cc1Cl | high band |

----------
test: NCI Yeast Anticancer Drug Screen. Data for the mlh1 rad18 strain (AID 175); settings: S. cerevisiae mlh1 rad18 strain growth inhibition; at 50.0 µM (retest, dose inferred, filed as 5.0)
This is part of a sample that, as a whole, favours compounds with a hit. Of some 79,000 tested, about 15% had one in any assay. The source made the active and inactive calls. No stated cut-off is given here; in the data, active means growth inhibition above about 70%; inactive means the rest.
Possible outcomes: YES (active), NO (inactive)

| compound | class_name |
| --- | --- |
| CCOC(=O)NN(C(=O)OCC)c1ccc(N=Nc2ccc(OC)cc2)n1C | YES |
| ClC(Cl)(Cl)C1=CC2c3ccccc3C1c1ccccc12 | YES |
| C=C1CC23CCC4C(C)(C(=O)O)CCCC4(C)C2CCC1C3 (stereo not drawn) | YES |
| Fc1ccc(NC(=S)SCc2ccco2)cc1 | YES |
| COC1/C=C/OC2(C)Oc3c(C)c(O)c4c5c(cc(O)c4c3C2=O)N=C(O5)/C(C)=C\C=C\C(C)C(O)C(C)C(O)C(C)C(OC(C)=O)C1C (stereo not drawn) | YES |
| NC(Cc1ccc(O)cc1O)C(=O)O (stereo not drawn) | NO |
| O=C(Nc1ccc(Cl)cc1)c1cccc([N+](=O)[O-])c1O | NO |
| Cc1cc(Sc2ccccc2)c2c(C)ccc(C(C)C)cc1-2 | NO |

Where do these numbers come from? They come from PubChem BioAssay (NCI).
